target: PYL1 (Arabidopsis thaliana); assay: ITC binding to PYL1
Sequence (Q8VZS8 whole entry): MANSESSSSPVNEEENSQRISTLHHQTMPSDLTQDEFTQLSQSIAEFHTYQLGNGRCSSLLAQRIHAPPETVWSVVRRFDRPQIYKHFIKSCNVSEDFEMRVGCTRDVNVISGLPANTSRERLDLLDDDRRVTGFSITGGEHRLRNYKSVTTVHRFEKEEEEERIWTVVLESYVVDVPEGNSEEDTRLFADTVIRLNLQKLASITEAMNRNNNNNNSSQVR
attribute measured: Kd (µM)
Write it as a number; the unit µM goes unstated.

Param item = CC1=CC(=O)CC(C)(C)[C@@]1(O)/C=C/C(C)=C\C(=O)O [ABA, Abscisic acid] ; retrieve measured Kd.
23.5
